Where these numbers come from: patent US20060251714A1

Experiment: Example 12: Phase II pilot study in CAA patients with lobar cerebral hemorrhage, plasma pharmacokinetics
Format: in vivo, human
Conditions: human, plasma, oral, 50 mg BID (Table 5 tablet), Week 0 (single dose), mean, only patients with estimable elimination rate constant
PARAMETER MEASURED: AUC(0-inf) (ng·h/mL)
Give bare numbers, in ng·h/mL.

Lookup result for NCCCS(=O)(=O)O ; measured AUC(0-inf): 1640

====

Assay: Example 12: Phase II pilot study in CAA patients with lobar cerebral hemorrhage, plasma pharmacokinetics
Assay type: in vivo, human
Settings: human, plasma, oral, 100 mg, 100 mg BID (Table 5 tablet), Week 12 (repeated), n = 6, mean, read-out: AUC0-t (AUCss for Week 12)
PARAMETER MEASURED: AUC(0-t) (ng·h/mL)
Give bare numbers, in ng·h/mL.

So for NCCCS(=O)(=O)O , the logged AUC(0-t) turned out to be 3700

====

Experiment: Example 12: 3-APS concentration in cerebrospinal fluid of CAA patients
Type: in vivo
Conditions: human, oral, 5 hours post-dose on Week 12, range of means, CSF samples from five patients, some below lower limit of quantitation, read-out: mean concentrations of 3-APS in the cerebrospinal fluid (CSF)
PARAMETER MEASURED: concentration at 5 h

Record summary for NCCCS(=O)(=O)O : reported concentration at 5 h = 3.28 to 4.1 ng/mL

====

Experiment: Example 9 Part II: food effect, single oral 100 mg 3-APS in elderly subjects, plasma pharmacokinetics
Assay type: in vivo
Conditions: both sexes, human, single oral 100 mg (Table 5 tablet), elderly male and female subjects, Fed Arm (high fat), n = 8, median
PARAMETER MEASURED: Tmax (h)
Answers are plain numbers, in h.

The recorded Tmax for entry NCCCS(=O)(=O)O equals 10.5

====

Assay: Example 13: single 150 mg dose of Modified-Release Coated Tablets in healthy elderly male volunteers, plasma pharmacokinetics
Assay type: in vivo
Details: male, human, po, 150 mg, single oral 150 mg (3 × 50 mg Table 5 tablets), elderly male subjects, Fasting Conditions, n = 11, mean
PARAMETER MEASURED: AUC(0-inf) (ng·h/mL)
Give bare numbers, in ng·h/mL.

Sample NCCCS(=O)(=O)O ; AUC(0-inf) observed: 3280

====

Assay: Example 13: single 150 mg dose of Modified-Release Coated Tablets in healthy elderly male volunteers, plasma pharmacokinetics
Type: in vivo
Settings: male, human, po, 150 mg, single oral 150 mg (3 × 50 mg Table 5 tablets), elderly male subjects, Fed Conditions, n = 10, mean
PARAMETER MEASURED: AUC(0-inf) (ng·h/mL)
One number for each entry, in ng·h/mL.

AUC(0-inf) reported for this molecule NCCCS(=O)(=O)O [3-APS, 3-amino-1-propanesulfonic acid] : 5310

====

Test: Example 12: Phase II pilot study in CAA patients with lobar cerebral hemorrhage, plasma pharmacokinetics
Format: in vivo, human
Settings: human, plasma, oral, 50 mg, 50 mg BID (Table 5 tablet), Week 12 (repeated), n = 8, mean
PARAMETER MEASURED: Cmax

Value of measured Cmax for the entry NCCCS(=O)(=O)O : 171 ng/mL

====

Test: Example 10: 3-APS concentration in cerebrospinal fluid of AD patients
Assay type: in vivo
Settings: human, dose 50 mg twice daily oral for 12 weeks, Day 2 of Week 12, read-out: CSF concentration with mean ± standard deviation
PARAMETER MEASURED: concentration at 5 h (ng/mL)
Numbers only, in ng/mL.

# concentration at 5 h (compound: NCCCS(=O)(=O)O ) is 1.07

====

Experiment: Example 7 Part II: food effect, single oral 200 mg 3-APS in young male subjects, plasma pharmacokinetics
Type: in vivo, human
Details: human, plasma, single oral 200 mg (Table 3 formulation), Fed Arm (high fat), n = 8, median
Text: In the following examples and elsewhere herein, terms are as defined below. The pharmacokinetic parameters were derived by non-compartmental analysis using WinNonlin® (Pharsight Corporation, Mountain View, Calif.) or SAS® for Windows® (SAS Institute Inc., Cary, N.C.). […]
PARAMETER MEASURED: Tmax
I'd appreciate it if you included the unit after the number.

Form field Tmax, entry NCCCS(=O)(=O)O : 13.5 h

====

Experiment: Example 7 Part II: food effect, single oral 200 mg 3-APS in young male subjects, plasma pharmacokinetics
Assay type: in vivo, human
Conditions: human, plasma, single oral 200 mg (Table 3 formulation), Fasting Arm, mean, only subjects with estimable elimination rate constant
PARAMETER MEASURED: AUC(0-inf)
Include the unit right after the number.

Kindly note the recorded AUC(0-inf) for NCCCS(=O)(=O)O [3-APS, 3-amino-1-propanesulfonic acid] , which is 2.4 µg·h/mL

====

Experiment: Example 12: Phase II pilot study in CAA patients with lobar cerebral hemorrhage, plasma pharmacokinetics
Type: in vivo, human
Details: human, plasma, oral, 150 mg, 150 mg BID (Table 5 tablet), Week 12 (repeated), n = 3, mean, read-out: AUC0-t (AUCss for Week 12)
PARAMETER MEASURED: AUC(0-t)
Write the figure, then the unit, nothing else.

NCCCS(=O)(=O)O [3-APS, 3-amino-1-propanesulfonic acid] has a reported AUC(0-t) of 6750 ng·h/mL

====

Experiment: Example 12: Phase II pilot study in CAA patients with lobar cerebral hemorrhage, plasma pharmacokinetics
Assay type: in vivo, human
Details: human, plasma, oral, 100 mg, 100 mg BID (Table 5 tablet), Week 0 (single dose), n = 7, mean, read-out: AUC0-t
Source text: In the following examples and elsewhere herein, terms are as defined below. The pharmacokinetic parameters were derived by non-compartmental analysis using WinNonlin® (Pharsight Corporation, Mountain View, Calif.) or SAS® for Windows® (SAS Institute Inc., Cary, N.C.). AUCss—the area under the plasma concentrations versus time curve during a dosing interval at steady state. […]
PARAMETER MEASURED: AUC(0-t) (ng·h/mL)
Give bare numbers, in ng·h/mL.

Just so you know, measured AUC(0-t) for NCCCS(=O)(=O)O [3-APS, 3-amino-1-propanesulfonic acid] came out at 2630

====

Assay: Example 12: Phase II pilot study in CAA patients with lobar cerebral hemorrhage, plasma pharmacokinetics
Type: in vivo, human
Conditions: human, plasma, oral, 150 mg, 150 mg BID (Table 5 tablet), Week 0 (single dose), n = 5, mean
PARAMETER MEASURED: Cmax
Could you give the number and then its unit, please?

Input NCCCS(=O)(=O)O . Output Cmax: 857 ng/mL

====

Experiment: Example 9 Part II: food effect, single oral 100 mg 3-APS in elderly subjects, plasma pharmacokinetics
Assay type: in vivo
Conditions: both sexes, human, po, 100 mg, single oral 100 mg (Table 5 tablet), elderly male and female subjects, Fed Arm (high fat), n = 8, mean
PARAMETER MEASURED: Cmax (ng/mL)
Answers are plain numbers, in ng/mL.

For reference, reported Cmax for NCCCS(=O)(=O)O stands at 671

====

Test: Example 9 Part II: food effect, single oral 100 mg 3-APS in elderly subjects, plasma pharmacokinetics
Type: in vivo
Conditions: both sexes, human, po, 100 mg, single oral 100 mg (Table 5 tablet), elderly male and female subjects, Fasting Arm, n = 8, mean
PARAMETER MEASURED: Cmax (ng/mL)
Answers are plain numbers, in ng/mL.

Entry under test: NCCCS(=O)(=O)O . Its Cmax was 931

====

Test: Example 9 Part II: food effect, single oral 100 mg 3-APS in elderly subjects, plasma pharmacokinetics
Format: in vivo
Conditions: both sexes, human, po, 100 mg, single oral 100 mg (Table 5 tablet), elderly male and female subjects, Fasting Arm, mean, only subjects with estimable elimination rate constant
PARAMETER MEASURED: AUC(0-inf)
Reply with the number, then its unit.

Noted for NCCCS(=O)(=O)O [3-APS, 3-amino-1-propanesulfonic acid] : its AUC(0-inf) reads 3290 ng·h/mL

====

Experiment: Example 7 Part II: food effect, single oral 200 mg 3-APS in young male subjects, plasma pharmacokinetics
Type: in vivo, human
Conditions: male, human, plasma, po, 200 mg, single oral 200 mg (Table 3 formulation), Fasting Arm, n = 8, mean
PARAMETER MEASURED: Cmax (ng/mL)
One number for each entry, in ng/mL.

Kindly note the recorded Cmax for NCCCS(=O)(=O)O , which is 594

====

Test: Example 12: Phase II pilot study in CAA patients with lobar cerebral hemorrhage, plasma pharmacokinetics
Format: in vivo, human
Details: human, plasma, oral, 100 mg BID (Table 5 tablet), Week 0 (single dose), mean, only patients with estimable elimination rate constant
PARAMETER MEASURED: AUC(0-inf) (ng·h/mL)
One number for each entry, in ng·h/mL.

Note to self: AUC(0-inf) recorded for NCCCS(=O)(=O)O [3-APS, 3-amino-1-propanesulfonic acid] was 2780

====

Test: Example 12: Phase II pilot study in CAA patients with lobar cerebral hemorrhage, plasma pharmacokinetics
Type: in vivo, human
Settings: human, plasma, oral, 150 mg, 150 mg BID (Table 5 tablet), Week 12 (repeated), n = 3, mean
PARAMETER MEASURED: Cmax (ng/mL)
One number for each entry, in ng/mL.

// NCCCS(=O)(=O)O [3-APS, 3-amino-1-propanesulfonic acid] : Cmax value = 1030
